- EXPERIMENTAL SYSTEM: CDK12 complexed with Cyclin K (Homo sapiens)
- Construct: GST (N)
- Sequence (Q9NYV4 whole entry): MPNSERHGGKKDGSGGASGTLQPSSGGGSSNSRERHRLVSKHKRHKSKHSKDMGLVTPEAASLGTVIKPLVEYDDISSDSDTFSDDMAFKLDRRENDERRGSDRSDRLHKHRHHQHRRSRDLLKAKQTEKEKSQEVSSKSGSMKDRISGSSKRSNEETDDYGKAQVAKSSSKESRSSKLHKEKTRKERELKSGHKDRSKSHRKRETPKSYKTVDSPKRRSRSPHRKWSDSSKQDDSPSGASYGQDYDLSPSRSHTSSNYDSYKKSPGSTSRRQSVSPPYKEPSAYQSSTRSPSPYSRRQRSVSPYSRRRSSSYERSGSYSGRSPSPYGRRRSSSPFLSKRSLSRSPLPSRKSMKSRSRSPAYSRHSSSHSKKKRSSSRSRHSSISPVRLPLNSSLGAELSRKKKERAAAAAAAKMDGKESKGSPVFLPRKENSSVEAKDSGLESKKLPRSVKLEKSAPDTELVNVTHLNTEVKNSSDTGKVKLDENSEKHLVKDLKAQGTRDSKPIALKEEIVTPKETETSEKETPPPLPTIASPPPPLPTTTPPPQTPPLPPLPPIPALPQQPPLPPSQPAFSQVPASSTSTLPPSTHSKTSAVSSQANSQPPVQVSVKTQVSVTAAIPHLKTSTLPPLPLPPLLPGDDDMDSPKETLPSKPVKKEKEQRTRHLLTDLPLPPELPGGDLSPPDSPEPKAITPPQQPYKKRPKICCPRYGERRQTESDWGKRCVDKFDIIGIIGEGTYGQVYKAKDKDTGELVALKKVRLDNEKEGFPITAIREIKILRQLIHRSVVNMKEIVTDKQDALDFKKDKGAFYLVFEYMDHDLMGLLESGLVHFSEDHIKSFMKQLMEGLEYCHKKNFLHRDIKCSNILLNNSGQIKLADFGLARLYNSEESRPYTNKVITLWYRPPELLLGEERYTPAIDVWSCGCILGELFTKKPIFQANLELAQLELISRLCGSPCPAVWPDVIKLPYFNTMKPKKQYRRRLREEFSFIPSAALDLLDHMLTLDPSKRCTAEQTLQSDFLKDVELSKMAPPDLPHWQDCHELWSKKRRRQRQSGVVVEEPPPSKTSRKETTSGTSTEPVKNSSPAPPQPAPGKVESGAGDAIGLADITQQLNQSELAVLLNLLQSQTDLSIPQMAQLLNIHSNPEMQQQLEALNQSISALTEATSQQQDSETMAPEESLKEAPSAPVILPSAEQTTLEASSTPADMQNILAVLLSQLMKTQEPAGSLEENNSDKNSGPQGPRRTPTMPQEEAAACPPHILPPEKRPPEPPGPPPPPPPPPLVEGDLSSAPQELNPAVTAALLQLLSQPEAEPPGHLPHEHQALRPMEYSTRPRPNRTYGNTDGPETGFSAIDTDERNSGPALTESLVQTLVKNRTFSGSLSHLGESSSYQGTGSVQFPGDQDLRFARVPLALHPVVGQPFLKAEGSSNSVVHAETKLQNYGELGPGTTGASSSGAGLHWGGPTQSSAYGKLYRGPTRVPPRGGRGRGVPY
- Sequence (O75909 whole entry partner): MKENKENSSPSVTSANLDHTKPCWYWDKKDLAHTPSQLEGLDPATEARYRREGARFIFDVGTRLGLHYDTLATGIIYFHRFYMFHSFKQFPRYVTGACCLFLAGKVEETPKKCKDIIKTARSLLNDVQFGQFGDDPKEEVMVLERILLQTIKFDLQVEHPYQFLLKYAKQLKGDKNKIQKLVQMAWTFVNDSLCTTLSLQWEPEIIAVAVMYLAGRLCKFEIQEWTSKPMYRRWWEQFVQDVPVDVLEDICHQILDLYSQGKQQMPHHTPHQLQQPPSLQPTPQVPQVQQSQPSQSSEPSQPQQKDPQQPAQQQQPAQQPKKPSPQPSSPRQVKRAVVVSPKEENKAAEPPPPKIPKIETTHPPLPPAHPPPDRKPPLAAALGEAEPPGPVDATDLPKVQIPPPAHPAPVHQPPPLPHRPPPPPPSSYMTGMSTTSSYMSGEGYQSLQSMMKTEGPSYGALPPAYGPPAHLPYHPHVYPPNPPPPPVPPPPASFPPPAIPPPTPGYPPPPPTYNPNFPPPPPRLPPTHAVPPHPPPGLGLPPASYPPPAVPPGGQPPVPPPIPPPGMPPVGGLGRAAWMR
- PROTOCOL TEXT: CDK Enzymatic Assays (HTRF, LANCE Ultra kinase assay), Example A1
- Type: biochemical
- ASSAY CONTEXT: enzyme pre-incubated with compounds for 60 minutes prior to addition of ATP (1 mM final) and Ulight-peptide; reaction 60-90 minutes at room temperature
Documented IC50 across a set of molecules

Known IC50 results, listed for orientation:
MOLECULE | EXPERIMENTAL SYSTEM | IC50
C=CC(=O)Nc1ccc2c(c1)C(=O)N([C@H]1CCC[C@@H](Nc3ncc(C4CC4)cn3)C1)C2 | CDK12 complexed with Cyclin K (Homo sapiens) | 50 to 500 nM
C=CC(=O)Nc1ccc2c(c1)C(=O)N([C@H]1CCC[C@@H](Nc3ncc(C(F)(F)F)cn3)C1)C2 | CDK12 complexed with Cyclin K (Homo sapiens) | < 50 nM
C=CC(=O)Nc1nn(C)c2cc(N3CCC[C@@H](Nc4ncc(C#N)c(OC)n4)C3)ncc12 | CDK12 complexed with Cyclin K (Homo sapiens) | < 50 nM

# IC50 lookup, item C=CC(=O)Nc1ccc2c(c1)nc(N1CC[C@@H](F)[C@@H](Nc3ncc(C(F)(F)F)cn3)C1)n2C
< 50 nM

# IC50 lookup, item COc1nc(N[C@@H]2CCC[C@H](N3Cc4ccc(NC(=O)/C=C/CF)cc4C3=O)C2)ncc1C#N
50 to 500 nM

# IC50 lookup, item C=CC(=O)Nc1ccc2c(c1)C(=O)N([C@H]1CCC[C@@H](Nc3ncc(C(C)C)cn3)C1)C2
< 50 nM

# IC50 lookup, item COc1nc(N[C@@H]2CCC[C@H](c3nc4cc(NC(=O)C5OC5C(=O)O)ccc4n3C)C2)ncc1C#N (some centres unmarked)
50 to 500 nM

# IC50 lookup, item C=CC(=O)Nc1cnc2c(N3CCC[C@@H](Nc4ncc(C#N)c(OC)n4)C3)nccn12
< 50 nM

# IC50 lookup, item C=CC(=O)Nc1nc2c(N3CC[C@@H](Nc4ncc(C#N)c(OC)n4)C3)nccn2n1
< 50 nM

# IC50 lookup, item CC#CC(=O)Nc1ccc2c(c1)C(=O)N([C@H]1CCC[C@@H](Nc3ncc(C#N)c(OC)n3)C1)C2
50 to 500 nM

# IC50 lookup, item C=CC(=O)Nc1ccc2nc(N3CC[C@@H](Nc4ncc(C#N)c(OC)n4)C3)nn2c1
< 50 nM

# IC50 lookup, item CCC(Br)C(=O)Nc1nn(C)c2cc(N3CCC[C@@H](Nc4ncc(C#N)c(OC)n4)C3)ncc12 (some centres unmarked)
< 50 nM

# IC50 lookup, item C=CC(=O)Nc1ccc2c(N3CCC[C@@H](Nc4ncc(C#N)c(OC)n4)C3)nn(C)c2c1
< 50 nM

# IC50 lookup, item C=CC(=O)Nc1cc2nc(N3C[C@H](F)C[C@@H](Nc4ncc(C(F)(F)F)cn4)C3)n(C)c2cc1C(C)C
< 50 nM

# IC50 lookup, item C=CC(=O)Nc1ccc2c(c1)nc(C(F)F)n2[C@H]1CCC[C@@H](Nc2ncc(C#N)cn2)C1
50 to 500 nM

# IC50 lookup, item C=CC(=O)N(C)c1ccc2c(c1)C(=O)N([C@H]1CCC[C@@H](Nc3ncc(C#N)c(OC)n3)C1)C2
< 50 nM

# IC50 lookup, item C=CC(=O)Nc1ccc2c(c1)C(=O)N([C@H]1CCC[C@@H](Nc3ncc(Cl)cn3)C1)C2
< 50 nM

# IC50 lookup, item C=CC(=O)Nc1ccc2c(c1)C(=O)N([C@H]1CCC[C@@H](Nc3cc(C)c(C#N)cn3)C1)C2
50 to 500 nM

# IC50 lookup, item C=CC(=O)Nc1ccc2c(c1)C(=O)N([C@H]1CCC[C@@H](Nc3ncc(C#N)c(NCC(C)(C)O)n3)C1)C2
< 50 nM

# IC50 lookup, item C=CC(=O)Nc1ccc2c(c1)C(=O)N([C@H]1CCC[C@@H](Nc3ncc(OC(F)F)cn3)C1)C2
< 50 nM

# IC50 lookup, item C=CC(=O)Nc1cc2nc(N3CC[C@@H](F)[C@@H](Nc4ncc(C(F)(F)F)cn4)C3)n(C)c2cc1C
< 50 nM

# IC50 lookup, item C=CC(=O)Nc1ccc2c(c1)C(=O)N([C@H]1CCC[C@@H](Nc3ncc(C#N)c(N(C)C)n3)C1)C2
< 50 nM
